Hi there, I'd appreciate the recorded Percent Effect for every entry that follows.
ASSAY SYSTEM: Shiga toxin 2 (Escherichia coli O157:H7) (UniProt P09385+P09386)
PROCEDURE SUMMARY: E. coli 0.157:H7 Shiga Toxin SOP - stx2 screening assay
Format: functional
Design: scale not given: direction of the effect not stated beside the values
CONDITION LABEL: 30 µM
Kindly provide the numeric value in % only, without the unit symbol.

query: Report Percent Effect, nothing else, for this molecule: O=C(NCc1cccnc1)C1=NOC2(CCN(S(=O)(=O)C3CC3)C2)C1 (stereo unspecified)
result: -21.8

query: Report Percent Effect, nothing else, for this molecule: N#Cc1ccc(OCCNc2cccc(C(=O)N3CCOCC3)c2)cc1
result: -43.4

query: Report Percent Effect, nothing else, for this molecule: COc1ccc(CC(=O)N2CCc3nnc(N(C)C)cc3C2)cc1F
result: -57.1

query: Report Percent Effect, nothing else, for this molecule: CN1CCN(C(=O)c2ccc(=O)n(C)c2)Cc2ccccc21
result: -29.2

query: Report Percent Effect, nothing else, for this molecule: COCC(C)N(C)C(=O)c1nc(S(C)(=O)=O)n2ccccc12 (stereo unspecified)
result: -13.2

query: Report Percent Effect, nothing else, for this molecule: Cc1cc(CN2CCCC2Cn2cncn2)no1 (stereo unspecified)
result: -0.0947

query: Report Percent Effect, nothing else, for this molecule: Cn1ccnc1C(NCc1csc(Br)c1)c1ccccc1 (stereo unspecified)
result: -3.96

query: Report Percent Effect, nothing else, for this molecule: CC(=O)N1CCCCC1c1nc(N)ncc1-c1ccccc1 (stereo unspecified)
result: 4.38

query: Report Percent Effect, nothing else, for this molecule: Cc1ccc(CN2CCOC3(CCCN(C(=O)c4ccco4)C3)C2)s1 (stereo unspecified)
result: -29.2

query: Report Percent Effect, nothing else, for this molecule: Cc1cc(C(=O)N2CC[C@@H]3CN(c4ncccn4)CCO[C@@H]3C2)c(C)o1
result: -7.5

query: Report Percent Effect, nothing else, for this molecule: Cc1occc1C(=O)N1CCC2(CCC(=O)N(CC(N)=O)C2)CC1
result: -17.1
